Source of measurements: patent US12178809B2

- target_desc: AOC1 (Homo sapiens (Human), UniProt P19801)
- Sequence (P19801 20-751): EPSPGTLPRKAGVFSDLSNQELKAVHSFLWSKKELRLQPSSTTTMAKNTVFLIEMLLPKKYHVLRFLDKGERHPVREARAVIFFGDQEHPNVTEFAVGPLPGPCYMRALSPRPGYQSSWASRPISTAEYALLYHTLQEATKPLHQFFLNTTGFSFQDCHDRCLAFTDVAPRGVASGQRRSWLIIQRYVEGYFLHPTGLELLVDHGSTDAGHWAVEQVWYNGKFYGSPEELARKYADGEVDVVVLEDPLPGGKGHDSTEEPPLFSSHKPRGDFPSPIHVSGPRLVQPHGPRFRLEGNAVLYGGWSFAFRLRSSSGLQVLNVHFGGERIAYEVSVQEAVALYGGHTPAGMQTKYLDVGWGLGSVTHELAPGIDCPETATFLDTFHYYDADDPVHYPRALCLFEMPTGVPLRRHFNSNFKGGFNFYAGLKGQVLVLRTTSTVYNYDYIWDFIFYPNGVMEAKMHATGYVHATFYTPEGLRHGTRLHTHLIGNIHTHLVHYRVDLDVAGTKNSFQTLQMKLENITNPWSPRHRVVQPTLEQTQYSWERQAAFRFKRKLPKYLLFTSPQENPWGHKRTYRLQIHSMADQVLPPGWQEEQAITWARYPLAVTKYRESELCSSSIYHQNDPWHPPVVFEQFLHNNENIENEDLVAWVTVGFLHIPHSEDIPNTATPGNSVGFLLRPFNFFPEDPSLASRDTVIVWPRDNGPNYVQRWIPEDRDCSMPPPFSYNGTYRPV
- method_notes: AOC1 biochemical assay (Amplex Red)
- condition_info: read-out: AOC1 IC50
- Procedure: The Amplex® Red Assay (available from Thermo Fisher Scientific) provides a sensitive method for the detection of H2O2 generated during enzymatic reactions like the amine oxidation catalyzed by AOC1. […] After an incubation for 30 minutes at 37° C. the turnover of the substrate is determined directly (or after the addition of an excess of an amine-oxidase inhibitor) with a fluorescence reader (Ex 540 nm/Em 590 nm) like Envision 2104 Multilabel Reader (PERKIN ELMER).
Counter-ions that a name gives are not always drawn.
IC50 by entry:

INPUT: Given NC/C(=C\F)COc1ccc(S(=O)(=O)N2CC[C@H](O)C2)cn1 [Example 35] , respond with its IC50.
OUTPUT: > 50 µM

INPUT: Name the recorded IC50 of the molecule listed here: COC(=O)C1CCN(S(=O)(=O)c2ccc(OC/C(=C/F)CN)nc2)CC1 [Example 51, trifluoroacetate]
OUTPUT: 48 µM

INPUT: Annotate the molecule NC/C(=C\F)COc1ccc(S(=O)(=O)N2CC3CC3C2)cn1 (centres unmarked) [Example 41] with its measured IC50.
OUTPUT: 25.4 µM

INPUT: Supply measured IC50 of CN(C)C(=O)[C@H]1CCN(S(=O)(=O)c2ccc(OC/C(=C/F)CN)nc2)C1 [Example 27] in your reply.
OUTPUT: > 50 µM

INPUT: State its IC50 for this molecule: COC(=O)C1(C)CCN(S(=O)(=O)c2ccc(OC/C(=C/F)CN)nc2)CC1 [Example 53]
OUTPUT: > 50 µM

INPUT: Specify IC50 for CN(C)C(=O)C1CN(S(=O)(=O)c2ccc(OC/C(=C/F)CN)nc2)C1 [Example 28] and stop.
OUTPUT: > 49.9 µM

INPUT: For the molecule CNC(=O)[C@H]1CCN(S(=O)(=O)c2ccc(OC/C(=C/F)CN)nc2)C1 [Example 29] , give its measured IC50 value.
OUTPUT: > 50 µM

INPUT: Provide measured IC50 value, entry: COC(=O)CC1CCN(S(=O)(=O)c2ccc(OC/C(=C/F)CN)nc2)CC1 [Example 22]
OUTPUT: > 50 µM

INPUT: Query IC50 for NC/C(=C\F)COc1ccc(S(=O)(=O)N2CCC(C(=O)N3CCOCC3)CC2)cn1 [Example 10]
OUTPUT: > 50 µM

INPUT: Tell me its IC50 given NC/C(=C\F)COc1ccc(S(=O)(=O)N2CC[C@@H](O)C2)cn1 [Example 36] as the entry.
OUTPUT: > 50 µM

INPUT: Using known records, supply IC50 for CN(C)C(=O)CC1CCN(S(=O)(=O)c2ccc(OC/C(=C/F)CN)nc2)CC1 [Example 16]
OUTPUT: > 50 µM

INPUT: Give the reported IC50 for this molecule. CC1(C(=O)NC2CCOCC2)CCN(S(=O)(=O)c2ccc(OC/C(=C/F)CN)nc2)CC1 [Example 58, trifluoroacetate]
OUTPUT: > 49.9 µM

INPUT: Assign IC50 to the following record: CN(C(N)=O)C1CCN(S(=O)(=O)c2ccc(OC/C(=C/F)CN)nc2)CC1 [Example 08]
OUTPUT: > 50 µM

INPUT: Please give measured IC50 of the following entry: NC/C(=C\F)COc1ccc(S(=O)(=O)N2CCC2)cn1 [Example 39]
OUTPUT: 17 µM

INPUT: Give recorded IC50. NC/C(=C\F)COc1ccc(S(=O)(=O)N2CCC(CC(=O)O)CC2)cn1 [Example 54, trifluoroacetate]
OUTPUT: > 50 µM

INPUT: Entry NC/C(=C\F)COc1ccc(S(=O)(=O)N2CCC(F)(F)C2)cn1 [Example 43] needs its IC50 filled in; supply it.
OUTPUT: 36.5 µM

* * *

Listed compounds paired with reported pIC50
- target_desc: AOC2 (Homo sapiens (Human))
- Sequence (O75106 whole entry): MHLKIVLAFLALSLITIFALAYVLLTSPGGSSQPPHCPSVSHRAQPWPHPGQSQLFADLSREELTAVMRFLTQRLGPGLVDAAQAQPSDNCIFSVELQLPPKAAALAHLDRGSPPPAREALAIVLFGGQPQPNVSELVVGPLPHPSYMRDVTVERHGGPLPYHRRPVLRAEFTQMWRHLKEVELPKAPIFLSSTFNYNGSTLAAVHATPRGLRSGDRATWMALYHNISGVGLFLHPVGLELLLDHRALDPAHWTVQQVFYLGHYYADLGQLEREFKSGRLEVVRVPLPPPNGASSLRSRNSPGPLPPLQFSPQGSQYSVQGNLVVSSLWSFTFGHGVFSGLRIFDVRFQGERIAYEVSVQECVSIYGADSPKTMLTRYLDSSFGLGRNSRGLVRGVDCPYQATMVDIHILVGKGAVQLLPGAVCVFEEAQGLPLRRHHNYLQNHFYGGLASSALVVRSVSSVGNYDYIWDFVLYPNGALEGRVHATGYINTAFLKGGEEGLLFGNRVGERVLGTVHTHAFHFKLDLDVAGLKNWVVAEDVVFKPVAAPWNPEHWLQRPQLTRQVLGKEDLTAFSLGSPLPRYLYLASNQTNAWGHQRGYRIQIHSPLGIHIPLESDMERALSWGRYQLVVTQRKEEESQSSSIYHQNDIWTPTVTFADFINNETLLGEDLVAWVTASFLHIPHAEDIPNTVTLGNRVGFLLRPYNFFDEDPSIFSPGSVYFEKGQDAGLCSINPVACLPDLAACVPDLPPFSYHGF
- method_notes: AOC2 biochemical assay (Amplex Red)
- condition_info: read-out: AOC2 IC50
Where a name gives a salt, the structure may show the parent alone.
When answering, recall that pIC50 equals minus log10 of the concentration in mol/L, and write that number alone.

Some entries whose results are on file:
# compound, target_desc, value_reported
records = [
    ("COC1CCN(S(=O)(=O)c2ccc(OC/C(=C/F)CN)nc2)C1.O=C(O)C(F)(F)F (stereo not drawn) [Example 40]", "AOC2 (Homo sapiens (Human))", 6.90),
    ("NC/C(=C\\F)COc1ccc(S(=O)(=O)N2CCC(CC(=O)O)CC2)cn1 [Example 54, trifluoroacetate]", "AOC2 (Homo sapiens (Human))", 8.40),
    ("CN1CCN(C2CCN(S(=O)(=O)c3ccc(OC/C(=C/F)CN)nc3)CC2)C1=O [Example 21]", "AOC2 (Homo sapiens (Human))", 6.72),
    ("CC(=O)N[C@H]1CCCN(S(=O)(=O)c2ccc(OC/C(=C/F)CN)nc2)C1 [Example 06]", "AOC2 (Homo sapiens (Human))", 6.23),
    ("NC/C(=C\\F)COc1ccc(S(=O)(=O)N2CCCC2)cn1 [Example 38]", "AOC2 (Homo sapiens (Human))", 6.56),
    ("COC1CN(S(=O)(=O)c2ccc(OC/C(=C/F)CN)nc2)C1 [Example 42]", "AOC2 (Homo sapiens (Human))", 7.06),
    ("CC(=O)N1CC(C2CCN(S(=O)(=O)c3ccc(OC/C(=C/F)CN)nc3)CC2)C1 [Example 14]", "AOC2 (Homo sapiens (Human))", 6.51),
    ("NC/C(=C\\F)COc1ccc(S(=O)(=O)N2CC[C@@H](O)C2)cn1 [Example 36]", "AOC2 (Homo sapiens (Human))", 6.26),
]

Please find the next compound below.
INPUT: Fill in pIC50 for NC/C(=C\F)COc1ccc(S(=O)(=O)N2CCC(C(=O)O)CC2)cn1 [Example 56] tested with AOC2 (Homo sapiens (Human)).
OUTPUT: 7.47
